# Test system: MS2 coat protein
# assay-details: apparent KD of MS2 coat protein; designed switch direction (-1 OFF switch, 1 ON switch): -1; higher = weaker reporter binding
# test-context: input ligand: none
Use 60 nM as the dividing line for apparent KD of MS2 coat protein, with the line itself on the 1.0 side and lower values as 0.0.

Completed entries (count: 4):
>  <seq-string>
CGUCCGAACUCAGGAUAUCAACUUAACAACAUGAGGAUCACCCAUGUGGCCUGUAAAACCCGAGAUGAGAAGGGAGGGCGGGCC [Usceondiat] (Eterna round: R96, puzzle: Exclusion NG 2)

>  <assigned-class>
0.0

$$$$
>  <seq-string>
ACUCGACAUGAGGAUCACCCAUGUGAGGAUAUGGCCUGUAUGGCGUGAGCUGGAUCAAUCAGAAGGCGCGUGGG [salish99_ex1_r4_052] (Eterna round: R97, puzzle: Exclusion 1)

>  <assigned-class>
0.0

$$$$
>  <seq-string>
ACAUGAGGAUCACCCAUGUCCGUCUGGUCUGUCUCGGCUGUCGAGGAUAUAGCCCGGUAUCCGCGCUAGAAGGCGGGAGUCGGC [Aenatbe mod 97] (Eterna round: R96, puzzle: Exclusion NG 3)

>  <assigned-class>
0.0

$$$$
>  <seq-string>
ACAUGAGGAUCACCCAUGUCCGGCUGGUCCGUCUCGGCUGUCGAGGAUAUAGCUUGGUGUCCGCGCUAGAAGGUGGGAGCCGGC [Aenatbe mod 71] (Eterna round: R96, puzzle: Exclusion NG 3)

>  <assigned-class>
1.0

$$$$

Consider the record given below.
[in] Entry UUGUUCCGUGUAGGAUAUUGGCCUCCCUCGGGCCGAGAAGGACAUGAGGAUCACCCAUGUAUGCUAUUAUCGCGCGUGGCGCAC [Design 94] (Eterna round: R96, puzzle: Exclusion NG 1) : is its apparent KD of MS2 coat protein no less than 60 nM?
[out] 0.0
